Assay: Antiproliferative activity against human C4-1 cells in 3D growth culture
Assay type: functional, cell-based
pIC50: −log10 of the molar value.
Readout kind: pIC50

Task item: Could you please provide reported pIC50 for "N[C@H]1CC[C@H](S(=O)(=O)N2[C@@H]3CC[C@H]2C[C@@H](NC(=O)c2cc(C4CC4)on2)C3)CC1" ? Thanks!
Reply: < 4.60

###

System: MDA-MB-231
Test: Antiproliferative activity against human MDA-MB-231 cells after 10 days
Format: functional, cell-based
Conditions: MDA-MB-231, 240 h
Readout kind: IC50 (µM)
Reply numerically in µM, unit not repeated.

Task item: Give IC50; test system MDA-MB-231; compound "Cc1cn(CCN2CCN(c3ccccc3-c3cc(C#N)cc(C(=O)NCCCN4CCCC4)c3)CC2)c2ccccc12"
Reply: 1.07

###

Tested on: PANC-1
Assay: Antiproliferative activity against human PANC-1 cells after 10 days
Format: functional, cell-based
Conditions: PANC-1, 240 h
Readout kind: IC50 (nM)
Respond with the bare value in nM.

Task item: Find IC50 for "Cc1cn(CCN2CCN(c3ccccc3-c3cc(C#N)cc(C(=O)NCCCN4CCCC4)c3)CC2)c2ccccc12" on PANC-1 and write it down.
Reply: 2870

###

Test system: DK-MG
Experiment: Antiproliferative activity against human DK-MG cells after 10 days
Type: functional, cell-based
Conditions: 240 h
Readout kind: IC50 (µM)
Use µM as the unit, but write only the number.

Task item: Write down IC50 measured for item "Cc1cn(CCN2CCN(c3ccccc3-c3cc(C#N)cc(C(=O)NCCCN4CCCC4)c3)CC2)c2ccccc12"
Reply: 6.42

###

Tested on: Daoy
Assay: Antiproliferative activity against human Daoy cells after 10 days
Format: functional, cell-based
Conditions: 240 h
Readout kind: IC50 (µM)
Please give a number only; it is taken to be in µM.

Task item: For the compound "Cc1cn(CCN2CCN(c3ccccc3-c3cc(C#N)cc(C(=O)NCCCN4CCCC4)c3)CC2)c2ccccc12" , give its reported IC50.
Reply: 3.67

###

System: Y79
Assay: Antiproliferative activity against human Y79 cells after 10 days
Type: functional, cell-based
Settings: Y79, 240 h
Readout kind: IC50 (µM)
API: value field is a number in µM; no unit string.

Task item: Identify measured IC50 corresponding to "Cc1cn(CCN2CCN(c3ccccc3-c3cc(C#N)cc(C(=O)NCCCN4CCCC4)c3)CC2)c2ccccc12"
Reply: 3.53

###

System: A204
Assay: Antiproliferative activity against human A204 cells after 10 days
Type: functional, cell-based
Details: A204, 240 h
Readout kind: IC50 (nM)
Quick note: give the figure in nM, leave out the unit.

Task item: Give reported IC50 value for "Cc1cn(CCN2CCN(c3ccccc3-c3cc(C#N)cc(C(=O)NCCCN4CCCC4)c3)CC2)c2ccccc12"
Reply: 1350

###

Here, each record is paired with measured IC50 data.
System: SNU-16
Experiment: Antiproliferative activity against human SNU-16 cells after 10 days
Type: functional, cell-based
Conditions: SNU-16, 240 h

Compound smiles: Cc1cn(CCN2CCN(c3ccccc3-c3cc(C#N)cc(C(=O)NCCCN4CCCC4)c3)CC2)c2ccccc12
Readout kind: IC50
Test result: 0.993 µM

Let us move to another entry and its IC50.
Task item: Look up and report measured IC50 for this entry: "O=C(NC1CN(Cc2cnn(Cc3ccccc3)c2)C1)c1cn(C2CC2)nn1"
Reply: > 10 µM

###

System: COLO 205
Test: Antiproliferative activity against human COLO 205 cells after 10 days
Type: functional, cell-based
Settings: COLO 205, 240 h
Readout kind: IC50 (nM)
Report the figure in nM without appending any unit label.

Task item: Given the molecule "Cc1cn(CCN2CCN(c3ccccc3-c3cc(C#N)cc(C(=O)NCCCN4CCCC4)c3)CC2)c2ccccc12" , write its reported IC50.
Reply: 944

###

Tested on: MEG-01
Assay: Antiproliferative activity against human MEG-01 cells after 10 days
Assay type: functional, cell-based
Conditions: MEG-01, 240 h
Readout kind: pIC50
The scale used: pIC50 is minus the common logarithm of the concentration in molar units.

Task item: Indicate its recorded pIC50; the compound in question is "Cc1cn(CCN2CCN(c3ccccc3-c3cc(C#N)cc(C(=O)NCCCN4CCCC4)c3)CC2)c2ccccc12"
Reply: 5.89

###

System: MCF7
Assay: Antiproliferative activity against human MCF7 cells after 10 days
Format: functional, cell-based
Conditions: MCF7, 240 h
Readout kind: IC50 (µM)
// return numeric value only (unit: µM, not printed)

Task item: Output IC50 of "Cc1cn(CCN2CCN(c3ccccc3-c3cc(C#N)cc(C(=O)NCCCN4CCCC4)c3)CC2)c2ccccc12"
Reply: 3.11

###

Tested on: SW48
Assay: Antiproliferative activity against human SW48 cells after 10 days
Format: functional, cell-based
Details: SW48, 240 h
Readout kind: pIC50
Expect pIC50 as a plain number equal to -log10 of the molar concentration.

Task item: Return the recorded pIC50 value; entry: "Cc1cn(CCN2CCN(c3ccccc3-c3cc(C#N)cc(C(=O)NCCCN4CCCC4)c3)CC2)c2ccccc12"
Reply: 5.87

###

Tested on: Hs 766
Experiment: Antiproliferative activity against human Hs 766T cells in 2D growth culture
Assay type: functional, cell-based
Readout kind: IC50

Task item: Input "N[C@H]1CC[C@H](S(=O)(=O)N2[C@@H]3CC[C@H]2C[C@@H](NC(=O)c2cc(C4CC4)on2)C3)CC1" , output reported IC50.
Reply: > 25 µM

###

Tested on: CAKI-2
Experiment: Antiproliferative activity against human CAKI-2 cells after 10 days
Assay type: functional, cell-based
Details: CAKI-2, 240 h
Readout kind: IC50 (nM)
Number in nM, nothing else.

Task item: In one line, give reported IC50 of the entry "Cc1cn(CCN2CCN(c3ccccc3-c3cc(C#N)cc(C(=O)NCCCN4CCCC4)c3)CC2)c2ccccc12" .
Reply: 1220

###

System: SNU1
Assay: Antiproliferative activity against human SNU1 cells after 10 days
Format: functional, cell-based
Details: SNU1, 240 h
Readout kind: pIC50
Here pIC50 is given on a logarithmic scale as minus log10 of the concentration in mol/L.

Task item: Look up and state reported pIC50 for "Cc1cn(CCN2CCN(c3ccccc3-c3cc(C#N)cc(C(=O)NCCCN4CCCC4)c3)CC2)c2ccccc12"
Reply: 5.92

###

Tested on: MDA-MB-453
Experiment: Antiproliferative activity against human MDA-MB-453 cells after 10 days
Format: functional, cell-based
Details: MDA-MB-453, 240 h
Readout kind: pIC50
pIC50 is defined as minus the log10 of a concentration measured in mol/L.

Task item: Check the records and state pIC50 for "Cc1cn(CCN2CCN(c3ccccc3-c3cc(C#N)cc(C(=O)NCCCN4CCCC4)c3)CC2)c2ccccc12"
Reply: 5.82

###

Test system: SK-LMS-1
Assay: Antiproliferative activity against human SK-LMS-1 cells after 10 days
Type: functional, cell-based
Conditions: SK-LMS-1, 240 h
Readout kind: pIC50
Quick note: pIC50 means taking -log10 of the concentration in moles per liter.

Task item: Tell me pIC50 reported for "Cc1cn(CCN2CCN(c3ccccc3-c3cc(C#N)cc(C(=O)NCCCN4CCCC4)c3)CC2)c2ccccc12"
Reply: 5.62

###

Tested on: DB
Assay: Antiproliferative activity against human DB cells in 2D growth culture
Assay type: functional, cell-based
pIC50: −log10 of the molar value.
Readout kind: pIC50

Task item: Quickly give me recorded pIC50 for "N[C@H]1CC[C@H](S(=O)(=O)N2[C@@H]3CC[C@H]2C[C@@H](NC(=O)c2cc(C4CC4)on2)C3)CC1"
Reply: < 4.60

###

System: SW900
Assay: Antiproliferative activity against human SW900 cells after 10 days
Type: functional, cell-based
Conditions: SW900, 240 h
Readout kind: IC50 (µM)
Supply the numeric figure in µM, leaving out any unit text.

Task item: Report IC50, nothing else, for this compound: "Cc1cn(CCN2CCN(c3ccccc3-c3cc(C#N)cc(C(=O)NCCCN4CCCC4)c3)CC2)c2ccccc12"
Reply: 3.22

###

Tested on: BHT-101
Experiment: Antiproliferative activity against human BHT-101 cells after 10 days
Assay type: functional, cell-based
Details: BHT-101, 240 h
List of IC50 values.

Compound smiles: Cc1cn(CCN2CCN(c3ccccc3-c3cc(C#N)cc(C(=O)NCCCN4CCCC4)c3)CC2)c2ccccc12
Tgt: BHT-101
Test result: 1430 nM

Proceed to the following item.
Task item: Annotate the molecule "O=C(NC1CN(Cc2cnn(Cc3ccccc3)c2)C1)c1cn(C2CC2)nn1" with its measured IC50.
Reply: > 10000 nM

###

System: DMS-153
Assay: Antiproliferative activity against human DMS-153 cells expressing wild-type KRAS
Assay type: functional, cell-based
pIC50: −log10 of the molar value.
Readout kind: pIC50

Task item: For the compound "N[C@H]1CC[C@H](S(=O)(=O)N2[C@@H]3CC[C@H]2C[C@@H](NC(=O)c2cc(C4CC4)on2)C3)CC1" , give its reported pIC50.
Reply: < 4.70

Ref: ChEMBL document CHEMBL5674880
